Measured values drawn from PubChem BioAssay for this set.

Experiment: probe aXIP binding to arrayed compounds – biochemical, NeuroSMM set, 635/667 nm fluorescence, primary screen (AID 1119);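 note: probe is the protein aXip251-270 applied at 1 µg/mL to compound-printed slides; binding of probe to printed compounds measured as 667 nm fluorescence plus signal to noise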
Conditions: small-molecule microarray, higher = more signal, called active from +8 up or from −8 down
So basically: composite Z-score at 0.7 or higher? That is t. Lower than 0.7? That is f.

In: Dear colleague, could you confirm whether O=C1c2ccccc2[C@@]2(Cc3ccccc3N(Cc3ccccc3)C2=O)[C@H](c2ccc(CO)cc2)N1Cc1ccccc1Cl has composite Z-score at or above 0.7?
Out: f

In: Dear colleague, could you confirm whether C=CCOC(=O)[C@@H]1[C@H]2C(=O)O[C@H](c3ccccc3)[C@H](c3ccccc3)N2[C@H](c2ccc(OCCOC(=O)[C@H]3C[C@H]4C(=O)NCC(=O)N4[C@H]3c3cccc(OCCO)c3)cc2)[C@@]12C(=O)Nc1ccc(I)cc12 has composite Z-score at or above 0.7?
Out: f

In: Dear colleague, could you confirm whether COc1ccc([Si](C)(C)[C@H]2[C@H](CC(=O)N3Cc4ccccc4C[C@H]3CO)O[C@@]3(C(=O)N(C)c4ccccc43)[C@@H]2C)cc1 has composite Z-score at or above 0.7?
Out: f

In: Dear colleague, could you confirm whether CN1C(=O)C2C(C3CC3)C=C3CN(Cc4cccc(Cl)c4)[C@@H]([C@@H](O)Cc4ccccc4)C3C2C1=O (some centres not stated) has composite Z-score at or above 0.7?
Out: t

In: Dear colleague, could you confirm whether COc1ccc([Si](C)(C)[C@@H]2[C@@H](CC(=O)N3Cc4ccccc4C[C@H]3CO)O[C@]3(C(=O)N(Cc4ccc(N5CCOC5=O)cc4)c4ccccc43)[C@H]2C)cc1 has composite Z-score at or above 0.7?
Out: t

In: Dear colleague, could you confirm whether CC(C)c1nc2cc(Br)ccc2c(=O)o1 has composite Z-score at or above 0.7?
Out: f

In: Dear colleague, could you confirm whether CCOC(=O)C1=CC[C@@H](c2ccccc2)N(S(=O)(=O)c2ccc(C)cc2)[C@H]1c1ccccc1I has composite Z-score at or above 0.7?
Out: f
